TEST_SYSTEM: T1, human Claudin 18.1 (human, UniProt P56856 1-261)
T1 construct: Overexpressed on HEK293A cells by lentivirus
T1 sequence (P56856 whole entry): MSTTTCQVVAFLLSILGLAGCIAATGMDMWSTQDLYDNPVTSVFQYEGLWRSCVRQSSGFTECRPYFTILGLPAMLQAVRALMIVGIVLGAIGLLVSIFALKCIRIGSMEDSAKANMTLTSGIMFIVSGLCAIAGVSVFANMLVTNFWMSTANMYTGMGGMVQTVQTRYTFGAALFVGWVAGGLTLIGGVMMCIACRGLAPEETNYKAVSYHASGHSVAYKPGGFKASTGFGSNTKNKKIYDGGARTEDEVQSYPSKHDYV
ASSAY_PROTOCOL: FACS on HEK293A/hClaudin 18.1 cells
PROPERTY_MEASURED: binding result

BINDER	PROPERTY_MEASURED	ENDPOINT_VALUE
18F2-5VH0VL0 (antibody, human IgG1, kappa, V domains shown, Humanized, human IgG1/kappa constant regions; also called 18F2-SVH0VL0) VH: QVQLVQSGAEVKKPGASVKVSCKASGYTFTSFWLNWVRQAPGQGLEWMGNIYPSTSYTVYNQKFKDRVTMTRDTSTSTVYMELSSLRSEDTAVYYCARTWRGNSFDLWGQGTTVTVSS VL: DIVMTQSPDSLAVSLGERATINCKSNQSLLNSGNQKNYVTWYQQKPGQPPKLLIYWGSTRVRGVPDRFSGSGSGTDFTLTISSLQAEDVAVYYCQNDYTYPFTFGQGTKLEIKR	binding result	no binding
18F2-5VH5VL0 (antibody, human IgG1, kappa, V domains shown, Humanized, human IgG1/kappa constant regions) VH: QVQLVQSGAEVKKPGASVKVSCKASGYTFTSFWLNWVRQRPGQGLEWIGNIYPSTSYTVYNQKFKDRVTLTVDKSTSTAYMELSSLRSEDTAVYYCTRTWRGNSFDLWGQGTTVTVSS VL: DIVMTQSPDSLAVSLGERATINCKSNQSLLNSGNQKNYVTWYQQKPGQPPKLLIYWGSTRVRGVPDRFSGSGSGTDFTLTISSLQAEDVAVYYCQNDYTYPFTFGQGTKLEIKR	binding result	no binding
18F2-66VH0VL0 (antibody, human IgG1, kappa, V domains shown, Humanized, human IgG1/kappa constant regions) VH: QVQLVQSGAEVKKPGASVKVSCKASGYTFTSFWINWVRQAPGQGLEWMGNIYPSASYTVYNQKFKDRVTMTRDTSTSTVYMELSSLRSEDTAVYYCARTWRGNSFDLWGQGTTVTVSS VL: DIVMTQSPDSLAVSLGERATINCKSSQSLLNSGNQKNYVTWYQQKPGQPPKLLIYWSSTRSFGVPDRFSGSGSGTDFTLTISSLQAEDVAVYYCQNDYTYPFTFGQGTKLEIKR	binding result	no binding
